The following compounds are shown together with reported cell viability values.
Tested on: Mel-DCC-11-R
Experiment: cell viability relative to DMSO control (fraction of DMSO control); higher = less cytotoxic, active = 0.8 or less
Conditions: 1 µM; 120 h; vemurafenib co-treatment 8 µM
Please state the value as a number alone, without comment.

For orientation, consider the following solved cases.
compound=CCOc1cc2ncc(C#N)c(Nc3ccc(OCc4ccccn4)c(Cl)c3)c2cc1NC(=O)/C=C/CN(C)C measurement_target=Mel-DCC-11-R val=0.643
compound=Cc1cc(Nc2ncc(Cl)c(Nc3ccccc3S(=O)(=O)C(C)C)n2)c(OC(C)C)cc1C1CCNCC1 measurement_target=Mel-DCC-11-R val=0.873
compound=c1cn2cc(-c3ccc4cn[nH]c4c3)nc(Nc3ccc(N4CCOCC4)cc3)c2n1 measurement_target=Mel-DCC-11-R val=0.877

Measured cell viability, C[C@@H]1O[C@@H](OC[C@H]2O[C@@H](Oc3c(-c4ccc(O)c(O)c4)oc4cc(O)cc(O)c4c3=O)[C@H](O)[C@@H](O)[C@@H]2O)[C@H](O)[C@H](O)[C@H]1O : 0.929

Measured cell viability, COc1cc(N2CCC(N3CCN(C)CC3)CC2)ccc1Nc1ncc(Cl)c(Nc2ccccc2P(C)(C)=O)n1 : 0.867

Measured cell viability, CCN(CC)CCNC(=O)c1c(C)[nH]c(/C=C2\C(=O)Nc3ccc(F)cc32)c1C : 0.564

Measured cell viability, CC(=O)O.CC(C)C[C@H](NC(=O)[C@@H](COC(C)(C)C)NC(=O)[C@H](Cc1ccc(O)cc1)NC(=O)[C@H](CO)NC(=O)[C@H](Cc1c[nH]c2ccccc12)NC(=O)[C@H](Cc1cnc[nH]1)NC(=O)[C@@H]1CCC(=O)N1)C(=O)N[C@@H](CCCN=C(N)N)C(=O)N1CCC[C@H]1C(=O)NNC(N)=O [Goserelin acetate] : 1.13
